Reference source: patent US10759796B2

# pIC50 values compiled below
# EXPERIMENTAL TARGET: Jurkat cells expressing CXCR4 (Homo sapiens (Human))
# Sequence (P61073 whole entry): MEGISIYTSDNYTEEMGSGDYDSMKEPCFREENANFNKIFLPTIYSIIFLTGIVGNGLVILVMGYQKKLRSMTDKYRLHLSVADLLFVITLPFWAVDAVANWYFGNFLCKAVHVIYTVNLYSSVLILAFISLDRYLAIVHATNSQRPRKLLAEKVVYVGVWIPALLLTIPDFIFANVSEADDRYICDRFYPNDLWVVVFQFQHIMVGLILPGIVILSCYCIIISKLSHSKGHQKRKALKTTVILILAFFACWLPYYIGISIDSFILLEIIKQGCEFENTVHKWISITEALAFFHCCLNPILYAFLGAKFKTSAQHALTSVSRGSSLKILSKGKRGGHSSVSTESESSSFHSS
pIC50: −log10 of the molar value.

- MOLECULE: "Cc1cccnc1[C@@H]1CCC[C@H](c2cn3c(N4CCN(C)CC4)cccc3n2)N1CCO [Compound I-87]"
  EXPERIMENTAL TARGET: "Jurkat cells expressing CXCR4 (Homo sapiens (Human))"
  pIC50: "7.00 to 11.00"
- MOLECULE: "CN1CCN(c2cccc3nc([C@H]4CCC[C@@H](c5ncccc5Cl)N4)cn23)CC1 (racemic) [Compound I-149]"
  EXPERIMENTAL TARGET: "Jurkat cells expressing CXCR4 (Homo sapiens (Human))"
  pIC50: "7.00 to 11.00"
- MOLECULE: "COCc1c([C@H]2CCC[C@@H](c3ncccc3C)N2C)nc2cccc(N3CCN(C)CC3)n12 [Compound I-12]"
  EXPERIMENTAL TARGET: "Jurkat cells expressing CXCR4 (Homo sapiens (Human))"
  pIC50: "7.00 to 11.00"
- MOLECULE: "CN1C2CCC1CN(c1cccc3nc([C@H]4CCC[C@@H](c5ncccc5Cl)N4C)c(CO)n13)C2 [Compound I-135]"
  EXPERIMENTAL TARGET: "Jurkat cells expressing CXCR4 (Homo sapiens (Human))"
  pIC50: "7.00 to 11.00"
- MOLECULE: "CCN1CCN(c2cccc3nc([C@H]4CCC[C@@H](c5ncccc5C(C)C)N4C)c(CO)n23)CC1 [Compound I-75]"
  EXPERIMENTAL TARGET: "Jurkat cells expressing CXCR4 (Homo sapiens (Human))"
  pIC50: "6.00 to 7.00"
- MOLECULE: "CCN1[C@@H](c2cn3c(N4CCN(C(C)C)CC4)cccc3n2)CCC[C@H]1c1ncccc1C [Compound I-37]"
  EXPERIMENTAL TARGET: "Jurkat cells expressing CXCR4 (Homo sapiens (Human))"
  pIC50: "7.00 to 11.00"

* * *

# MEASUREMENT NOTES: in vitro
# CONDITION SUMMARY: human, Caco-2, pH 7.4
# efflux ratio at 90 min, 10 μM values compiled below

- STRUCTURE STRING: "CN1C2CCC1CN(c1cccc3nc([C@H]4CCC[C@@H](c5ncccc5Cl)N4)cn13)C2"
  efflux ratio at 90 min, 10 μM: "0.1 to 10"
- STRUCTURE STRING: "Cc1cccnc1[C@@H]1CCC[C@H](c2nc3cccc(N4CCN(C)CC4)n3c2Cl)N1"
  efflux ratio at 90 min, 10 μM: "0.1 to 10"
- STRUCTURE STRING: "CCOCc1c([C@H]2CCC[C@@H](c3ncccc3C)N2C)nc2cccc(N3CCN(CC)CC3)n12"
  efflux ratio at 90 min, 10 μM: "0.1 to 10"
- STRUCTURE STRING: "CCN1[C@@H](c2nc3cccc(N4CCN(C(C)C)CC4)n3c2Br)CCC[C@H]1c1ncccc1C"
  efflux ratio at 90 min, 10 μM: "0.1 to 10"
- STRUCTURE STRING: "Cc1cccnc1[C@@H]1CCC[C@H](c2nc3cccc(N4CCN(C)CC4)n3c2CO)N1C"
  efflux ratio at 90 min, 10 μM: "0.1 to 10"
- STRUCTURE STRING: "Cc1cccnc1[C@@H]1CCC[C@H](c2cn3ccccc3n2)N1CCc1cnccn1"
  efflux ratio at 90 min, 10 μM: "0.1 to 10"
- STRUCTURE STRING: "Cc1cccnc1[C@@H]1CCC[C@H](c2cn3c(N4CC5CCC(C4)N5C)cccc3n2)N1C"
  efflux ratio at 90 min, 10 μM: "10 to 30"
- STRUCTURE STRING: "Cc1cccnc1[C@@H]1CCC[C@H](c2nc3cccc(N4CCN(C)CC4)n3c2COC(C)C)N1C"
  efflux ratio at 90 min, 10 μM: "0.1 to 10"
- STRUCTURE STRING: "Cc1cccnc1[C@@H]1CCC[C@H](c2cn3c(N4CCN(C)CC4)cccc3n2)N1CCO"
  efflux ratio at 90 min, 10 μM: "10 to 30"
